Molecular target: T1, recombinant human ErbB3 protein (R&D systems) (human, UniProt P21860 20-643)
T1 construct: Bought recombinant protein; also called HER3
Assay: BLI (Octet QK384), human ErbB3 immobilized on AR2G sensor, IgG at 12.5-50 nM
metric-name: kon (M⁻¹ s⁻¹)
Report as a plain number; the unit M⁻¹ s⁻¹ is understood.

The examples below pair each entry with its known result.
472S3 (antibody, V domains shown, IgG1 (Selexis 085 vector, CHO)) VH: EVQLLESGGGLVQPGGSLRLSCAASGFTFSWYDMSWVRQAPGKGLEWVSGISYDGGNTYYADSVKGRFTISRDNSKNTLYLQMNSLRAEDTAVYYCARDPSWCLQDLCYYADGMDVWGQGTLVTVSS VL: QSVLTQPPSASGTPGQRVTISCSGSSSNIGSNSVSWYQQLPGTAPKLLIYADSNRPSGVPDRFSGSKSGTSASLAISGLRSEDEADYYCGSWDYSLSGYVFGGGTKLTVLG; 522000
442M4 (antibody, V domains shown, IgG1 (Selexis 085 vector, CHO)) VH: EVQLLESGGGLVQPGGSLRLSCAASGFTFSDYDMSWVRQAPGKGLEWVSTIDLDSGSIYYADSVQGRFTISRDNSKNTLYLQMNSLRAEDTAVYYCAKDLHMGPEGPFDYWGQGTLVTVSS VL: QSVLTQPPSASGTPGQRVTISCSGSSSNIGSNSVSWYQQLPGTAPKLLIYSDNHRPSGVPDRFSGSKSGTSASLAISGLRSEDEADYYCVGWDSSLYGHVFGGGTKLTVLG; 573000

Exercise: What measured kon goes with 442M8 (antibody, V domains shown, IgG1 (Selexis 085 vector, CHO)) VH: EVQLLESGGGLVQPGGSLRLSCAASGFTFSDYDMSWVRQAPGKGLEWVSSIYPDSGSTYYADSVQGRFTISRDNSKNTLYLQMNSLRAEDTAVYYCAKDLHMGPEGPFDYWGQGTLVTVSS VL: QSVLTQPPSASGTPGQRVTISCSGSSSNIGSNSVSWYQQLPGTAPKLLIYSDNHRPSGVPDRFSGSKSGTSASLAISGLRSEDEADYYCHAWDSSLYVDVFGGGTKLTVLG ?
Key: 870000

Exercise: What measured kon goes with 442M6 (antibody, V domains shown, IgG1 (Selexis 085 vector, CHO)) VH: EVQLLESGGGLVQPGGSLRLSCAASGFTFSDYDMSWVRQAPGKGLEWVSSIEPDSGSTDYADSVQGRFTISRDNSKNTLYLQMNSLRAEDTAVYYCAKDRHMWPEGPFDYWGQGTLVTVSS VL: QSVLTQPPSASGTPGQRVTISCSGSSSNIGSNSGSWYQQLPGTAPKLLIYADNWRPSGVPDRFSGSKSGTSASLAISGLRSEDEADYYCAAWDSSLSGYVFGGGTKLTVLG ?
Key: 969000

Exercise: What measured kon goes with 451M2 (antibody, V domains shown, IgG1 (Selexis 085 vector, CHO)) VH: EVQLLESGGGLVQPGGSLRLSCAASGFTFSDYDMSWVRQAPGKGLEWVSAIYYDSGSIYYADSAKGRFTISRDNSKNTLYLQMNSLRAEDTAVYYCAKDRLFASDSTFDYWGQGTLVTVSS VL: QSVLTQPPSASGTPGQRVTISCSGSPSNIGNNSVTWYQQLPGTAPKLLIYYDSHRPSGVPDRFSGSKSGTSASLAISGLRSEDEADYYCGSWDASLNGYVFGGGTKLTVLG ?
Key: 1.24e+06

Exercise: What measured kon goes with 451M5 (antibody, V domains shown, IgG1 (Selexis 085 vector, CHO)) VH: EVQLLESGGGLVQPGGSLRLSCAASGFTFSDYDMSWVRQAPGKGLEWVSAIYYDSGSIYYADSAKGRFTISRDNSKNTLYLQMNSLRAEDTAVYYCAKDRLFESDSTFDYWGQGTLVTVSS VL: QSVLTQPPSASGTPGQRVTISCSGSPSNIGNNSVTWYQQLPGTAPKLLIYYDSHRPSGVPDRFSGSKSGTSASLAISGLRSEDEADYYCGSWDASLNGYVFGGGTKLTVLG ?
Key: 1.52e+06

Exercise: What measured kon goes with 451M6 (antibody, V domains shown, IgG1 (Selexis 085 vector, CHO)) VH: EVQLLESGGGLVQPGGSLRLSCAASGFTFSHYDMSWVRQAPGKGLEWVSAIYYDSGSIYYADSAKGRFTISRDNSKNTLYLQMNSLRAEDTAVYYCAKDRLFESDSTFDYWGQGTLVTVSS VL: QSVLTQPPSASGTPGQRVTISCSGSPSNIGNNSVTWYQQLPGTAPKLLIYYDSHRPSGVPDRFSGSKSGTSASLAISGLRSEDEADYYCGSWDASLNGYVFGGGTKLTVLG ?
Key: 1.2e+06

Exercise: What measured kon goes with 472P (antibody, V domains shown, IgG1 (Selexis 085 vector, CHO); also called anti-ErbB3 lead antibody 472P) VH: EVQLLESGGGLVQPGGSLRLSCAASGFTFSDYDMSWVRQAPGKGLEWVSGISYDGGNTYYADSVKGRFTISRDNSKNTLYLQMNSLRAEDTAVYYCARDPSWCLQDLCYYADGMDVWGQGTLVTVSS VL: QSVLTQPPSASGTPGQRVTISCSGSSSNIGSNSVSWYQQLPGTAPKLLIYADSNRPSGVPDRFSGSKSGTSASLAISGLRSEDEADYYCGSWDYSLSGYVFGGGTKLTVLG ?
Key: 1.79e+06
